# experimental-system: UniProt O60674
# Sequence (O60674 whole entry): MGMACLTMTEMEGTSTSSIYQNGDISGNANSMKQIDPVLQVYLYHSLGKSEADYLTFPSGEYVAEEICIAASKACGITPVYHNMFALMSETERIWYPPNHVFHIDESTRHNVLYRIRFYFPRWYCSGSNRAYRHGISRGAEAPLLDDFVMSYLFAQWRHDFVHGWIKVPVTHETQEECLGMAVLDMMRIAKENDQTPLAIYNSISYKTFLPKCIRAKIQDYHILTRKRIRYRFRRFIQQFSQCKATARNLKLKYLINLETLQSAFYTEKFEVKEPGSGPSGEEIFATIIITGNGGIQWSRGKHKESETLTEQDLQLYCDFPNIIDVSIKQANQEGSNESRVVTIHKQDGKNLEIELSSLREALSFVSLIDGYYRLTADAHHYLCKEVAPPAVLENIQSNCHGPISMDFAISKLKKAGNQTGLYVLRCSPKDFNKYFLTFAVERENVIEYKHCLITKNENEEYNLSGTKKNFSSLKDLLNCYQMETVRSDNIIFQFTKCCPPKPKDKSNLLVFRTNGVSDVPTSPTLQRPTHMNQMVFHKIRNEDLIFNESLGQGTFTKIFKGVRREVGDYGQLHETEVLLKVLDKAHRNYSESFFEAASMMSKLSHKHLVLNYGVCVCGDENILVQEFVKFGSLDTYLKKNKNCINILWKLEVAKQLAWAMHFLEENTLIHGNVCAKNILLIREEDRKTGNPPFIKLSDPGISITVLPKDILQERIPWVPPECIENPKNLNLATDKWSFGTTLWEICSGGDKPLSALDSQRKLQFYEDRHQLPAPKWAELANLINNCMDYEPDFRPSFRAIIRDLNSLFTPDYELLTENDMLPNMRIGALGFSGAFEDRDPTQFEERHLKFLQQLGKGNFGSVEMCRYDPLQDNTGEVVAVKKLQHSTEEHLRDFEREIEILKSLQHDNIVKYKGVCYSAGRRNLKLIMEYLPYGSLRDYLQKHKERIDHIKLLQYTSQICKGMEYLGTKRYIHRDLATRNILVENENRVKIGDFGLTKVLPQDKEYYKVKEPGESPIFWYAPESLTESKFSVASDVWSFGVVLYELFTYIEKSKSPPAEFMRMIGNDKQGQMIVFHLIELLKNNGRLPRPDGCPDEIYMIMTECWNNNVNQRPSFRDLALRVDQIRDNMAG
pIC50: −log10 of the molar value.
measurement-name: pIC50

compound="O=C(O)[C@H]1C2CCC(CC2)[C@@H]1Nc1nc(-c2n[nH]c3ncc(F)cc23)nc(C2CC2)c1F [ZSP1273]" result="< 5.00"
compound="O=C(O)[C@H]1C2CCC(CC2)[C@@H]1Nc1nc(-c2c[nH]c3ncc(F)cc23)ncc1F [VX-787, reference compound]" result="< 5.00"

* * *

# experiment-summary: in vivo
# conditions-used: both, beagle, dog, po, 15 mg/kg
measurement-name: Tmax (min)

substance_smiles=O=C(O)[C@H]1C2CCC(CC2)[C@@H]1Nc1nc(-c2n[nH]c3ncc(F)cc23)nc(C2CC2)c1F measurement_name=Tmax quantitative_readout=27.5
